assayDetails: Inhibition of rat microsomal SOAT assessed as reduction in cholesteryl oleate formation from oleoyl co-enzyme A pretreated for 15 mins followed by oleoyl co-enzyme A addition after 10 mins by HPTLC method
Exercise: state measured pIC50 for each of the compounds provided.
One number for each entry.

Parameter requested: pIC50. Apply to each item below.
1. CCCCCCCNC(=O)Nc1ccc(-c2sc(C)nc2-c2ccc(Cl)cc2)cc1
2. CCCCNC(=O)Nc1ccc(-c2sc(C)nc2-c2ccc(Cl)cc2)cc1
3. COc1ccc(-c2nc(C)sc2-c2ccc(NC(=O)Nc3ccccc3)cc2)cc1
4. Cc1nc(-c2ccc(F)cc2)c(-c2ccc(NC(=O)Nc3c(C(C)C)cccc3C(C)C)cc2)s1

Solution:
1: 5.105; 2: 5.202; 3: 4.0233; 4: 4.926

Parameter requested: pIC50. Apply to each item below.
1. Cc1ccc(-c2nonc2-c2ccc(NC(=O)Nc3ccc(F)cc3F)cc2)cc1
2. COc1ccc(-c2nc(NC(=O)Nc3ccccc3)sc2-c2ccc(Cl)cc2)cc1
3. COc1ccc(-c2nc(NC(=O)Nc3ccc(F)cc3F)sc2-c2ccc(NS(C)(=O)=O)cc2)cc1
4. O=C(Nc1ccccc1)Nc1nc(-c2ccccc2)c(-c2ccccc2)s1
5. COc1ccc(-c2nc(NC(=O)Nc3ccc(F)cc3F)sc2-c2ccc(NC(C)C)cc2)cc1
6. CCCCNC(=O)Nc1ccc(-c2sc(C)nc2-c2ccc(F)cc2)cc1
7. CCCCNC(=O)Nc1nc(-c2ccc(C)cc2)c(-c2ccc(Cl)cc2)s1

Solution:
1: 4.697; 2: 4.972; 3: 4.721; 4: 4.7512; 5: 4.916; 6: 5.0186; 7: 4.0271

Parameter requested: pIC50. Apply to each item below.
1. CCCCCCCNC(=O)Nc1ccc(-c2sc(C)nc2-c2ccc(F)cc2)cc1
2. COc1ccc(-c2nc(NC(=O)Nc3ccc(F)cc3F)sc2-c2ccc(NC(C)=O)cc2)cc1
3. CCCCCCCCCCCCNC(=O)Nc1ccc(-c2sc(C)nc2-c2ccc(F)cc2)cc1

Solution:
1: 5.244; 2: 4.496; 3: 4.313

Parameter requested: pIC50. Apply to each item below.
1. CCc1cccc(CC)c1NC(=O)Nc1ccc(-c2sc(C)nc2-c2ccc(C)cc2)cc1
2. CCCCCCCNC(=O)Nc1nc(-c2ccc(OC)cc2)c(-c2ccc(Cl)cc2)s1
3. CCc1cccc(CC)c1NC(=O)Nc1nc(-c2ccc(C)cc2)c(-c2ccc(N)cc2)s1
4. Cc1nc(-c2ccc(F)cc2)c(-c2ccc(NC(=O)Nc3ccc(F)cc3F)cc2)s1
5. CCCCCCCCCCCCNC(=O)Nc1ccc(-c2nonc2-c2ccc(F)cc2)cc1

Solution:
1: 4.412; 2: 4.672; 3: 3.9863; 4: 3.7081; 5: 4.905

Parameter requested: pIC50. Apply to each item below.
1. CCc1cccc(CC)c1NC(=O)Nc1ccc(-c2sc(C)nc2-c2ccc(F)cc2)cc1
2. Cc1nc(-c2ccc(Cl)cc2)c(-c2ccc(NC(=O)NCCN3CCOCC3)cc2)s1

Solution:
1: 5.075; 2: 3.927

----------
Species: Rattus norvegicus
assayDetails: Inhibition of rat microsomal SOAT assessed as reduction in cholesteryl oleate formation from oleoyl co-enzyme A at 10 uM pretreated for 15 mins followed by oleoyl co-enzyme A addition measured after 10 mins by HPTLC method relative to control
outcomeMeasure: inhibition (%)
Numbers only, in %.

Completed entries (count: 4):
1) CCCCNC(=O)Nc1ccc(-c2nonc2-c2ccc(C)cc2)cc1 2.83
2) CCCCCCCCCCCCNC(=O)Nc1ccc(-c2nonc2-c2ccc(C)cc2)cc1 9.15
3) Cc1ccc(-c2nc(NC(=O)Nc3ccc(F)cc3F)sc2-c2ccc([N+](=O)[O-])cc2)cc1 3.86
4) CCc1cccc(CC)c1NC(=O)Nc1nc(-c2ccc(F)cc2)c(-c2ccc(Cl)cc2)s1 1.58

# context switch: different compound, same inhibition
Problem: Input `CCCCCCCNC(=O)Nc1ccc(-c2nonc2-c2ccc(Cl)cc2)cc1` , output reported inhibition.
Solution: 4.3

----------
assayDetails: Acute toxicity in Wistar rat assessed as mortality administered orally as single dose measured up to 14 days
assaySetup: in vivo, po, read-out: CD50
outcomeMeasure: LD50 at 336 h

Problem: Input `CCCCNC(=O)Nc1ccc(-c2sc(C)nc2-c2ccc(C)cc2)cc1` , output reported LD50 at 336 h.
Solution: > 2000 mg/kg

----------
Species: Rattus norvegicus
assayDetails: Inhibition of rat microsomal SOAT assessed as reduction in cholesteryl oleate formation from oleoyl co-enzyme A at 10 uM pretreated for 15 mins followed by oleoyl co-enzyme A addition measured after 10 mins by HPTLC method relative to control
Lab note: compare inhibition against 4%. Equal or greater, write Criterion met. Smaller, write Criterion not met.

1) CCCCCCCNC(=O)Nc1nc(-c2ccc(OC)cc2)c(-c2ccc([N+](=O)[O-])cc2)s1 Criterion not met
2) Cc1nc(-c2ccc(Cl)cc2)c(-c2ccc(NC(=O)Nc3c(C(C)C)cccc3C(C)C)cc2)s1 Criterion met
3) CCCCNC(=O)Nc1ccc(-c2sc(C)nc2-c2ccc(Cl)cc2)cc1 Criterion met

Problem: Has `CCCCNC(=O)Nc1ccc(-c2nonc2-c2ccc(F)cc2)cc1` a recorded inhibition greater than or equal to 4%?
Solution: Criterion met

----------
assayDetails: Inhibition of rat microsomal SOAT assessed as reduction in cholesteryl oleate formation from oleoyl co-enzyme A pretreated for 15 mins followed by oleoyl co-enzyme A addition after 10 mins by HPTLC method
outcomeMeasure: IC50 (µM)
Answers are plain numbers, in µM.

Completed entries (count: 3):
1) CCCCNC(=O)Nc1ccc(-c2sc(C)nc2-c2ccc(F)cc2)cc1 9.58
2) CCCCNC(=O)Nc1nc(-c2ccc(OC)cc2)c(-c2ccc(NC(C)=O)cc2)s1 41.3
3) COc1ccc(-c2nc(NC(=O)Nc3ccccc3)sc2-c2ccc(Cl)cc2)cc1 10.7

Parameter requested: IC50. Apply to each item below.
1. CCCCCCCNC(=O)Nc1ccc(-c2sc(C)nc2-c2ccc(F)cc2)cc1
2. CCc1cccc(CC)c1NC(=O)Nc1nc(-c2ccc(C)cc2)c(-c2ccc(N)cc2)s1
3. CCCCNC(=O)Nc1ccc(-c2nonc2-c2ccc(F)cc2)cc1

Solution:
5.69
103
12.3

----------
assayDetails: Inhibition of rat microsomal SOAT assessed as reduction in cholesteryl oleate formation from oleoyl co-enzyme A pretreated for 15 mins followed by oleoyl co-enzyme A addition after 10 mins by HPTLC method
Exercise: state measured IC50 for each of the compounds provided.
Give bare numbers, in µM.

Completed entries (count: 3):
1. CCc1cccc(CC)c1NC(=O)Nc1ccc(-c2sc(C)nc2-c2ccc(F)cc2)cc1 8.4
2. CCCCNC(=O)Nc1nc(-c2ccc(C)cc2)c(-c2ccc(Cl)cc2)s1 94
3. CCCCCCCCCCCCNC(=O)Nc1ccc(-c2nonc2-c2ccc(C)cc2)cc1 123

# context switch: different compound, same IC50
Problem: Input `Cc1ccc(-c2nonc2-c2ccc(NC(=O)Nc3ccc(F)cc3F)cc2)cc1` , output reported IC50.
Solution: 20.1
